# targetEntity: cynomolgus monkey MuSK (cynomolgus monkey, UniProt A0A2K5USF6 24-487)
# Sequence (A0A2K5USF6 entry or part of it): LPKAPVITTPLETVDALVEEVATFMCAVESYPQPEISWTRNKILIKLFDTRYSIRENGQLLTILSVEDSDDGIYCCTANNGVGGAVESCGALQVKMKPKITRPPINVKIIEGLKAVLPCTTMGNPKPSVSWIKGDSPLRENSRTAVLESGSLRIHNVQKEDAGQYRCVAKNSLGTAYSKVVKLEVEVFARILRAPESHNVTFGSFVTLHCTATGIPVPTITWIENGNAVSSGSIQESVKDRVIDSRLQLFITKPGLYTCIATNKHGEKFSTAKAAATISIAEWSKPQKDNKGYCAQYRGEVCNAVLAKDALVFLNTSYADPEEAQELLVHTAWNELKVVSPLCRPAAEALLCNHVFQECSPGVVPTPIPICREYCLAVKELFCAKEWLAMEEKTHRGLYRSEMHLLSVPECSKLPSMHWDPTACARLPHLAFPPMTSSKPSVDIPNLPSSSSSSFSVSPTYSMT
# assayRemarks: Biacore, MuSK on chip (200RU), 66.7 nM mAb, dissociation pH 7.4
measuredEndpoint: R0 (RU)
Numbers only here, please. The scale is RU.

Known R0 results, listed for orientation:
Supply recorded R0 for 3B2g1m2 (antibody, human IgG1, V domains shown, human IgG1-LALA backbone; produced in HEK293 cells) VH: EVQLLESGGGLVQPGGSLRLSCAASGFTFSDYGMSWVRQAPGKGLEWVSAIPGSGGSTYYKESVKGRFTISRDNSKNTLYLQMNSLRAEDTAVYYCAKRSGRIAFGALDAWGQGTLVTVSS VL: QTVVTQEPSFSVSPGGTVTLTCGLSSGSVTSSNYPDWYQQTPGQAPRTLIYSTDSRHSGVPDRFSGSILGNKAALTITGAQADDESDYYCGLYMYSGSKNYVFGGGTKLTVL here.
133

Supply recorded R0 for 3B2g2m4 (antibody, human IgG1, V domains shown, human IgG1-LALA backbone; produced in HEK293 cells) VH: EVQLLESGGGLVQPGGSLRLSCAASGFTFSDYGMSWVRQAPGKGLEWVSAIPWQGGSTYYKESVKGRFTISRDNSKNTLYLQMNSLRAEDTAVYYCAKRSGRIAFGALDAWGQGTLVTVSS VL: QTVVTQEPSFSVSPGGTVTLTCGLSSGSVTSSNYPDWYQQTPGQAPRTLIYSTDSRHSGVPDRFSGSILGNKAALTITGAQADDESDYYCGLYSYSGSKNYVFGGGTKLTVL here.
142

Supply recorded R0 for 3B2g1m1 (antibody, human IgG1, V domains shown, human IgG1-LALA backbone; produced in HEK293 cells) VH: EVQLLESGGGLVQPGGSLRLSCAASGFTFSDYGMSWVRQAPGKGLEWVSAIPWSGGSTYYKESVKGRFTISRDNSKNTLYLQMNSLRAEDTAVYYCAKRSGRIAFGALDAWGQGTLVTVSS VL: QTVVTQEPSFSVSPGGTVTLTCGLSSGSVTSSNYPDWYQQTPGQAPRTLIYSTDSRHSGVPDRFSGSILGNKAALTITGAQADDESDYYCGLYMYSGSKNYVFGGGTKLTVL here.
143

For the next question, use this binder.
Supply recorded R0 for 3B2g2m2 (antibody, human IgG1, V domains shown, human IgG1-LALA backbone; produced in HEK293 cells) VH: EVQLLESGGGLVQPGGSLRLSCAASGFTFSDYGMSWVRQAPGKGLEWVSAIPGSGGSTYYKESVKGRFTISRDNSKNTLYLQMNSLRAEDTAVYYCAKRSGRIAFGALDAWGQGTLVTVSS VL: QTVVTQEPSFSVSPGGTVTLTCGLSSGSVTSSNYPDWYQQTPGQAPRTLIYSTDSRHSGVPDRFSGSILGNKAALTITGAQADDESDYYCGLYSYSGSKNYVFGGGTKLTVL here.
136

Reference source: patent US20230151091A1
